- Tested on: Clostridium perfringens
- procedure.details: Antibacterial activity against Clostridium perfringens ATCC 13124 assessed as growth inhibition after 20 to 24 hrs
- Assay type: functional
Property: MIC; scope: individual molecules

Worked examples, 4 molecules total:
O=[N+]([O-])c1ccc(O)c([N+](=O)[O-])c1 | > 50 µg/mL
N#CC(C#N)=NNc1cccc(Cl)c1 [CARBONYL CYANIDE M-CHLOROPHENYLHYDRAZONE] | > 50 µg/mL
Cc1ccc(C(=O)N/N=C/c2cccc3ccccc23)cc1 | > 50 µg/mL
Cc1cc(C(=O)N/N=C/c2c(O)ccc3ccccc23)[nH]n1 | ≤ 3.13 µg/mL

Now, please, on to the next molecule.
Param item: `O=C(N/N=C/c1c(O)ccc2ccccc12)c1ccc(-c2ccccc2)cc1` ; param system: Clostridium perfringens; output MIC: 3.13 µg/mL

###

MIC values for the compounds below.
- Tested on: Staphylococcus aureus
- procedure.details: Antibacterial activity against Staphylococcus aureus 8325-4 assessed as growth inhibition after 20 to 24 hrs
- Assay type: functional

CCc1c(Cl)c(O)c(Cl)c(O)c1C(=O)O[C@H]1[C@H](O)[C@H](OC)[C@H](OC/C2=C\C=C\C[C@H](O)/C(C)=C/[C@H](CC)[C@@H](O[C@@H]3OC(C)(C)[C@@H](OC(=O)C(C)C)[C@H](O)[C@@H]3O)/C(C)=C/C(C)=C/C[C@@H]([C@@H](C)O)OC2=O)O[C@@H]1C | 3.13 µg/mL
Oc1c(Cl)c(Cl)c(Cl)c(Cl)c1Cl | < 0.78 µg/mL
COc1cccc(/C=N/NC(=O)c2cc(C)n[nH]2)c1O | > 50 µg/mL
COc1cccc(/C=N/NC(=O)c2cc(C)nc3ccc(Br)cc23)c1 | > 50 µg/mL
COc1ccc2ccccc2c1/C=N/NC(=O)c1ccc(C)cc1 | > 50 µg/mL

// field: MIC; key: `Cc1ccc(C(=O)N/N=C/c2c(O)ccc3ccccc23)cc1` ; value = > 50 µg/mL

###

- Tested on: Clostridium perfringens
- procedure.details: Antibacterial activity against Clostridium perfringens ATCC 13124 assessed as growth inhibition after 20 to 24 hrs
- Assay type: functional
metric.name: MIC (µg/mL)
Enter your answer as a number in µg/mL; do not include the unit.

Examples from the recorded data:
Cc1ccc(C(=O)N/N=C/c2c(O)ccc3ccccc23)cc1 | 1.56
COc1cccc(/C=N/NC(=O)c2cc(C)nc3ccc(Br)cc23)c1O | 6.25

GET /values?item= Oc1c(Cl)c(Cl)c(Cl)c(Cl)c1Cl [PENTACHLOROPHENOL] &system= Clostridium perfringens returns MIC: 6.25

###

Documented MIC across a set of molecules
- Test system: Clostridium perfringens
- procedure.details: Antibacterial activity against Clostridium perfringens ATCC 13124 assessed as growth inhibition after 20 to 24 hrs
- Format: functional

Example cases with answers are listed next.
CCc1c(Cl)c(O)c(Cl)c(O)c1C(=O)O[C@H]1[C@H](O)[C@H](OC)[C@H](OC/C2=C\C=C\C[C@H](O)/C(C)=C/[C@H](CC)[C@@H](O[C@@H]3OC(C)(C)[C@@H](OC(=O)C(C)C)[C@H](O)[C@@H]3O)/C(C)=C/C(C)=C/C[C@@H]([C@@H](C)O)OC2=O)O[C@@H]1C | ≤ 0.0075 µg/mL
Cc1ccc(C(=O)N(C)/N=C/c2c(O)ccc3ccccc23)cc1 | > 50 µg/mL

Lab note: `CN[C@H](CC(C)C)C(=O)N[C@H]1C(=O)N[C@@H](CC(N)=O)C(=O)N[C@H]2C(=O)N[C@H]3C(=O)N[C@H](C(=O)N[C@H](C(=O)O)c4cc(O)cc(O)c4-c4cc3ccc4O)[C@H](O)c3ccc(c(Cl)c3)Oc3cc2cc(c3O[C@@H]2O[C@H](CO)[C@@H](O)[C@H](O)[C@H]2O[C@H]2C[C@](C)(N)[C@H](O)[C@H](C)O2)Oc2ccc(cc2Cl)[C@H]1O` gave MIC of ≤ 0.78 µg/mL
